- assay.info: rescue of polyQ-huntingtin neuronal dysfunction in worms, whole organism, C. elegans mechanosensory neurons, N-terminal huntingtin (AID 1599)
- assay.setup: touch response, stronger effect = higher value
Potency and affinity values are given separately.
# label = condition met if rescue above control >= 2 else condition not met

| molecule | assigned.class |
| --- | --- |
| ClC1C(Cl)C(Cl)C(Cl)C(Cl)C1Cl (configuration not stated) | condition not met |
| CCC1(c2ccc(N)cc2)CCC(=O)NC1=O (configuration not stated) | condition met |
| CC[C@@H](CO)NC(=O)[C@@H]1C=C2c3cccc4[nH]cc(c34)C[C@H]2N(C)C1 | condition met |
| CO[C@@H]1C[C@@H](C[C@H]2CC[C@H](C)[C@H]([C@@H](C)C(=O)O)O2)O[C@]2(O[C@](C)([C@H]3CC[C@@](C)(C4O[C@@H](C5O[C@@](O)(CO)[C@H](C)C[C@@H]5C)C[C@@H]4C)O3)C[C@H]2C)[C@@H]1C (some centres not stated) | condition met |
| CN(C)[C@@H]1C(=O)C(C(N)=O)=C(O)[C@@]2(O)C(=O)C3=C(O)c4c(O)cccc4[C@@](C)(O)[C@H]3[C@H](O)[C@@H]12 | condition not met |
| C[C@H]1C(=O)O[C@@H]2CCN3CC=C(COC(=O)[C@](C)(O)[C@]1(C)O)[C@H]23 | condition met |
| CNC1(c2ccccc2Cl)CCCCC1=O (configuration not stated) | condition not met |
